- System: Hepatitis C virus
- assay_details: Antiviral activity against Hepatitis C virus genotype 1a in Huh-luc/neo-ET replicon cells after 48 hrs by replicon-based luciferase assay
- Assay type: functional, organism-based, Hepacivirus hominis
- condition_parameters: subtype 1a
pEC50: −log10 of the molar value.
Classification field: 1 = pEC50 at or over 8; 0 = pEC50 under 8.

Worked cases, answers included:
# molecule, experimental_system, label
measured = [
    ("CC(=O)N1CCC[C@H]1c1ncc(-c2ccc(-c3ccc(-c4cnc([C@@H]5CCCN5C(C)=O)[nH]4)cc3)cc2)[nH]1", "Hepatitis C virus", 0),
    ("COC(=O)N[C@H](C(=O)N1CCC[C@H]1c1ncc(-c2ccc(-c3ccc(-c4cnc(C5CCC6(CCOCC6)N5C(C)=O)[nH]4)cc3)cc2)[nH]1)C(C)C (stereo not given in full)", "Hepatitis C virus", 1),
]

Incoming: Form field: pEC50 at least 8? Entry: CC[C@H](NC(=O)OC)C(=O)N1C(c2ncc(-c3ccc(-c4ccc(-c5cnc([C@@H]6CCCN6C(=O)[C@@H](NC(=O)OC)C(C)C)[nH]5)cc4)cc3)[nH]2)CCC12CCC(F)(F)CC2 (stereo not given in full)
Outgoing: 1

Incoming: Hi, just wondering whether COC(=O)N[C@@H](C)C(=O)N1C(c2ncc(-c3ccc(-c4ccc(-c5cnc([C@@H]6CCCN6C(=O)[C@@H](NC(=O)OC)C(C)C)[nH]5)cc4)cc3)[nH]2)CCC12CCC(F)(F)CC2 (stereo not given in full) shows pEC50 of 8 or higher.
Outgoing: 1
